Origin of the recorded values: the COVID Moonshot data (paper PMC7615835)

Here's what we have: pIC50 numbers for SARS-CoV-2 Main Protease (SARS-CoV-2).
Give bare numbers, as −log10 of the molar value.

                                   compound  recorded_measurement
0  CC(C)(C)c1ccc(N(C(=O)c2ccn[nH]2)C(C(=O)NCCc2cccc(F)c2)c2cccnc2)cc1 (stereo not given)                  5.75
1  CC1CN(Cc2cccc(Cl)c2)CCN1C(=O)CCl (stereo not given)                  5.11
2  O=C(Cc1cc(Cl)cc(Nc2ccccc2I)c1)Nc1cncc2ccccc12                  5.66
3  O=C(NCCc1cccc(F)c1)C(c1cccnc1)N(C(=O)c1cnc[nH]1)c1ccc(C2COC2)cc1 (stereo not given)                  4.64
4  O=C(Cc1cc(Cl)cc(Nc2cc(Cl)cc(Cl)c2O)c1)Nc1cncc2ccccc12                  5.04

From here, focus on the item given below.
Incoming: Name the recorded pIC50 of the item COc1cc(CN2CCN(C(=O)CCl)CC2)c2ccccc2c1 in your answer.
Outgoing: 5.56
